# Tested on: RXF 393 renal
# method-description: NCI tumour cell line growth inhibition, 48 h
Assignment: determine reported TGI for the given compounds.
State just the number; it will be interpreted in µM.

According to the records, this compound CCOC(=O)C(Cc1ccc(OC(=O)c2ccc(OC)cc2)cc1)NC(=O)C(F)(F)F (centres undefined) displays TGI of 73.2

According to the records, this compound `O=C(Nc1ccc(Cl)c(Cl)c1)Nc1c(Oc2ccc(Cl)c(Cl)c2)ccc(Cl)c1S(=O)(=O)O` displays TGI of 5.64

According to the records, this compound `O=C1C=CC(=Nc2cc(Br)c(O)c(Br)c2)C=C1` displays TGI of 63.8

According to the records, this compound C[C@]12CC/C(=N\O)C=C1CC[C@@H]1C2CC[C@@]2(C)C1CC[C@@H]2OC1CCCCO1 (some centres undefined) displays TGI of 50.5
